- Test system: SF-268
- ASSAY SUMMARY: NCI tumour cell line growth inhibition, 48 h
The source made the active and inactive calls. Cut-off read from the data, not from the text of the source: active = GI50 up to about 1.1 µM and inactive = higher.
Entries and their GI50

{"columns": ["COMPOUND", "EXPERIMENTAL TARGET", "GI50"],
 "data": [
  ["Cc1cc(O)c2c(c1)CC(O)C1=C2C(=O)c2c(O)ccc(OC3CC(O)C(OC4CC(OC5CCC(O)C(C)O5)C(O)C(C)O4)C(C)O3)c2C1=O (centres undefined)", "SF-268", "1.74 µM (inactive)"],
  ["COc1cc(CNc2nc3c(NC(C)=O)cc(C(F)(F)F)cc3nc2-c2ccccc2)cc(OC)c1OC", "SF-268", "> 100 µM (inactive)"],
  ["COc1c2c(c3ccccc3c1O)C1C=CC2C1 (centres undefined)", "SF-268", "17.7 µM (inactive)"],
  ["CCCCC1(C(NC(=O)c2ccccc2Cl)c2ccncc2)C(=O)N(c2ccccc2)N(c2ccccc2)C1=O (centres undefined)", "SF-268", "> 100 µM (inactive)"],
  ["CC1=Nc2nc(Cl)cn2C(=O)C1(Cl)Cl", "SF-268", "> 10 µM (inactive)"],
  ["COC(=O)[C@@]12CC3CN(Cc4c1[nH]c1ccccc41)C2CC3=O", "SF-268", "> 100 µM (inactive)"],
  ["CCOC(=O)/C=C1/Nc2cc(F)c(F)cc2NC1=O", "SF-268", "> 100 µM (inactive)"],
  ["O=C1CC(C(O)(C(F)(F)F)C(F)(F)Cl)CCC1C(O)(C(F)(F)F)C(F)(F)Cl (centres undefined)", "SF-268", "> 10 µM (inactive)"],
  ["O=C(NCCn1ccnn1)Nc1ccccc1", "SF-268", "> 100 µM (inactive)"],
  ["C#C[C@]1(O)CC[C@H]2[C@@H]3CCC4=C/C(=N/CCOC(=O)c5cccc6c(=O)c7ccccc7[nH]c56)CC[C@@H]4[C@H]3CC[C@@]21C", "SF-268", "53.6 µM (inactive)"],
  ["CC(=O)OC[C@@H](OC(C)=O)[C@H](OC(C)=O)[C@@H]1OC(C)(C)O[C@@H]1C1SCCCS1", "SF-268", "> 100 µM (inactive)"],
  ["C#CCn1c(=O)c2cc(OC)c(OC)cc2n(CC#C)c1=O", "SF-268", "> 10 µM (inactive)"],
  ["COc1ccccc1NCc1nnc(CCCCCCCCc2nnc(CNc3ccccc3OC)o2)o1", "SF-268", "> 100 µM (inactive)"],
  ["COc1ccc(-c2nc(N)c(C#N)c3c2CCSc2ccc(C)cc2-3)cc1OC", "SF-268", "17.2 µM (inactive)"],
  ["O=C1[C@H]2ON(c3ccccc3)C(c3ccc(Cl)cc3)[C@H]2C(=O)N1c1ccc(Cc2ccc(N3C(=O)[C@@H]4ON(c5ccccc5)C(c5ccc(Cl)cc5)[C@@H]4C3=O)cc2)cc1 (some centres undefined)", "SF-268", "> 100 µM (inactive)"],
  ["Nc1nc(Cl)cc(OCC2(CO)CCCC2)n1", "SF-268", "> 100 µM (inactive)"],
  ["COc1cc(C(=O)O)c(-c2cc3c(cc2C=O)OCO3)c(OC)c1OC", "SF-268", "> 10 µM (inactive)"],
  ["SC1=Nc2ccccc2-c2nc(-c3cccc(Cl)c3)cc(-c3ccccc3)c2C1", "SF-268", "3.79 µM (inactive)"],
  ["COc1ccc(/N=N/c2c(N)nn(C)c2N)cc1", "SF-268", "> 100 µM (inactive)"]
]}

====

- Tested on: SK-MEL-2
- ASSAY SUMMARY: NCI tumour cell line growth inhibition, 48 h
Activity calls are given as the source filed them. No stated cut-off is given here; in the data, active = GI50 up to about 1.1 µM and inactive = higher.
Possible outcomes: active, inactive

{"columns": ["MOLECULE", "EXPERIMENTAL TARGET", "CLASS NAME"],
 "data": [
  ["COc1ccc2c(c1)c1c(n2CCN2CCCCC2)-c2ccccc2CC1", "SK-MEL-2", "inactive"],
  ["CCCCCC(/C=C/[C@@H]1[C@H]2CC(=O)O[C@H]2C[C@H]1N1CCOCC1)OC1CCCO1 (stereo not given in full)", "SK-MEL-2", "inactive"],
  ["O=c1c(C(c2ccc3ccccc3c2)c2c(O)oc3ccccc3c2=O)c(O)oc2ccccc12", "SK-MEL-2", "inactive"],
  ["Clc1cc(OC2C3CC4CC(C3)CC2C4)nc(Cl)n1 (stereo not given)", "SK-MEL-2", "inactive"],
  ["CC[N+]1(C)CCC(O)(c2ccccc2)C(C(=O)c2ccccc2)C1 (stereo not given)", "SK-MEL-2", "inactive"],
  ["C=C1C(=O)C[C@H]2C(=C)C(=O)O[C@@H]2C2C1CC[C@@]2(C)O (stereo not given in full)", "SK-MEL-2", "inactive"],
  ["CC1CC(=O)Nc2nc3ccccc3n21 (stereo not given)", "SK-MEL-2", "inactive"],
  ["CCC1(CC)CC(=NNS(=O)(=O)c2ccc(C)cc2)C1", "SK-MEL-2", "inactive"],
  ["COC(=O)CCCC(=O)NC1=C(Nc2ccccc2)C(=O)c2ccccc2C1=O", "SK-MEL-2", "inactive"],
  ["COc1ccccc1OCC(=N/NC(=O)c1ccncc1)/N=C/c1ccncc1", "SK-MEL-2", "inactive"],
  ["NCCCN(CCCCN(CCCN)CCCc1ccccc1)CCCc1ccccc1", "SK-MEL-2", "inactive"],
  ["BrCC[N+]12CC[N+](CCBr)(CC1)C2", "SK-MEL-2", "inactive"],
  ["O=C(/C=C\\c1ccc(Cl)cc1Cl)c1cccs1", "SK-MEL-2", "inactive"],
  ["NCCOCn1cc(Cc2cccc(OCc3ccccc3)c2)c(=O)[nH]c1=O", "SK-MEL-2", "inactive"],
  ["[Se]=P(c1ccccc1)(c1ccccc1)c1ccc(C(c2ccccc2)=P(c2ccccc2)(c2ccccc2)c2ccccc2)cc1", "SK-MEL-2", "active"],
  ["CCCNC(=O)CCC(C)[C@H]1CCC2C3C(C[C@H](OC(C)=O)[C@@]21C)[C@@]1(C)CCC2(C[C@H]1C[C@H]3OC(C)=O)OOC1(CCCCC1)OO2 (stereo not given in full)", "SK-MEL-2", "inactive"],
  ["CCOC(=O)c1cc(C2CCN(CC(C)CC)C2=S)c(C(=O)/C=C(/C)N)[nH]1 (stereo not given)", "SK-MEL-2", "inactive"],
  ["COc1cc2c(cc1OCc1ccccc1)NC(=O)[C@@H]1C[C@@H](O)CN1C2=O", "SK-MEL-2", "inactive"],
  ["Cc1nc2ccc(S(=O)(=O)Nc3ccc(Cl)cc3)cc2c(=O)n1NC(=O)CNc1ccc(Cl)cc1", "SK-MEL-2", "inactive"],
  ["CCOC(=O)c1c(SCC#N)n(-c2ccccc2)c(=S)n(-c2ccccc2)c1=O", "SK-MEL-2", "inactive"],
  ["COC(=O)c1nc(C(=O)OC)c2c([nH]c3ccccc32)c1C(=O)OC", "SK-MEL-2", "inactive"],
  ["CC(C)[Si](OC1=CCC[C@H]2NC(=O)[C@@H](Cc3ccc([N+](=O)[O-])cc3)[C@@]12C)(C(C)C)C(C)C", "SK-MEL-2", "inactive"],
  ["COC1=C(C)C(=O)C2=C(C1=O)[C@@H]1[C@@H]3Cc4c(OC(=O)CO)c(C)c(OC)c(O)c4[C@H](CNC(=O)C(C)=O)N3[C@@H](C#N)[C@H](C2)N1C", "SK-MEL-2", "active"],
  ["Cc1cc(O)nc(NN2C(Cl)C(=O)C2c2ccco2)n1 (stereo not given)", "SK-MEL-2", "inactive"],
  ["CCN(CC)C(=O)Cn1c2c(c3ccccc31)CCCC2", "SK-MEL-2", "inactive"],
  ["C/N=C(N)/N=C(\\N)Nc1cc2ccccc2c2ccccc12", "SK-MEL-2", "inactive"],
  ["O=C1/C(=C/c2ccc(O)cc2)CCCC1CN1CCCCC1 (stereo not given)", "SK-MEL-2", "inactive"],
  ["O=C(O)c1nn[nH]c1S", "SK-MEL-2", "inactive"],
  ["Cc1ccc(-n2cc(-c3ccc(Cl)cc3)c(C#N)c2N)cc1", "SK-MEL-2", "inactive"],
  ["COc1ccc(/C=C2/CSC/C(=C/c3ccc(OC)c(OC)c3)C2=O)cc1OC", "SK-MEL-2", "inactive"],
  ["COc1ccc([C@@H]2ON(C)[C@H]3CN(C)C(=O)[C@@H]23)cc1", "SK-MEL-2", "inactive"],
  ["CC1CC[C@@]2(OC1)OC1C[C@H]3[C@@H]4C/C(=N\\N(C)C)[C@@]5(O)CC(O)CC[C@]5(C)[C@H]4CC[C@]3(C)C1[C@@H]2C (stereo not given in full)", "SK-MEL-2", "inactive"],
  ["COc1ccc(C(=C2C=CC=C2)c2ccc(OC)cc2)cc1", "SK-MEL-2", "inactive"],
  ["COc1cc(CNc2nc3c(NC(C)=O)cc(C(F)(F)F)cc3nc2-c2ccccc2)cc(OC)c1OC", "SK-MEL-2", "inactive"],
  ["CCCN(CCC)C1=Nc2ccccc2-n2cnnc2C1", "SK-MEL-2", "inactive"],
  ["O=C(OCCNC(=O)N1CC1)OCCNC(=O)N1CC1", "SK-MEL-2", "inactive"],
  ["Cc1cc2c(CC(=O)O)n[nH]c2c(C(=O)O)c1C", "SK-MEL-2", "inactive"],
  ["O=C1CC(C(O)(C(F)(F)F)C(F)(F)Cl)CCC1C(O)(C(F)(F)F)C(F)(F)Cl (stereo not given)", "SK-MEL-2", "inactive"],
  ["CN(C)CCCNc1ccc2nnn3c4ccc(OC(=O)c5ccc([N+](=O)[O-])cc5)cc4c(=O)c1c23", "SK-MEL-2", "inactive"],
  ["O=c1/c(=C/c2ccc(Cl)cc2Cl)sc2nc3ccccc3n12", "SK-MEL-2", "inactive"]
]}
